Target desc: human liver DHEA ST (Homo sapiens, UniProt Q06520)
Sequence (Q06520 whole entry): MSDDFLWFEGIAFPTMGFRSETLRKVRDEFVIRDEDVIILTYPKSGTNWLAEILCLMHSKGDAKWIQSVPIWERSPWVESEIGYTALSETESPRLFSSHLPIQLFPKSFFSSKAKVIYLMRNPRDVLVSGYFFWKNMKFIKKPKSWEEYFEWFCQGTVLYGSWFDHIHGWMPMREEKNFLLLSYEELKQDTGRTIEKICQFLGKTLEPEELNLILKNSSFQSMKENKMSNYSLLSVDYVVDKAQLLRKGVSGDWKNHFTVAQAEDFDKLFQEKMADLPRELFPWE
Recorded endpoint: pIC50
One number for each entry, as −log10 of the molar value.

O=[N+]([O-])c1cc(Cl)c(O)c(Cl)c1 has a reported pIC50 of 4.40

* * *

Target desc: human liver EST (Homo sapiens)
Measurement notes: ST activities in high-speed supernatants of COS-1 cells transfected with human liver EST cDNA
Format: biochemical
Set-up: expressed in transfected cells; host or cells: COS-1 cells, vector p91023(B); 100,000×g high-speed supernatant
Protocol conditions: substance is the sulfate acceptor substrate; transfected COS-1 cell preparation; 1 unit = 1 nmol sulfated product per hour at 37° C.
Task for the reader: assign each of the following compounds its reported sulfation catalyzed by the protein encoded by the human liver EST cDNA.
Answers are plain numbers, in units/mg protein.

Past entries and their recorded results:
Compound	U	Recorded result
C[C@]12CC[C@H](O)CC1=CC[C@@H]1[C@@H]2CC[C@]2(C)C(=O)CC[C@@H]12 [DHEA, dehydroepiandrosterone]	units/mg protein	2.3
O=[N+]([O-])c1ccc(O)cc1	units/mg protein	5

// below: sulfation catalyzed by the protein encoded by the human liver EST cDNA requested for another compound
C[C@]12CC[C@@H]3c4ccc(O)cc4CC[C@H]3[C@@H]1CCC2=O has a reported sulfation catalyzed by the protein encoded by the human liver EST cDNA of 9

* * *

Target desc: human liver EST (Homo sapiens)
Sequence (P49888 1-294): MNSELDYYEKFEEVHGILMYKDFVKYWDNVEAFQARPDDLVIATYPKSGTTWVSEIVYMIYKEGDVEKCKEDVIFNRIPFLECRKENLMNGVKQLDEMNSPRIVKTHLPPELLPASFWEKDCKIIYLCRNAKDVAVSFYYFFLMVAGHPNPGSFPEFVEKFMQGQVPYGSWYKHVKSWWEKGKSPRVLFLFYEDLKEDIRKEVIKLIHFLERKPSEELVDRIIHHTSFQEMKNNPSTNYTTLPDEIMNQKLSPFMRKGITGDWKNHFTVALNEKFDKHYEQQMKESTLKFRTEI
Recorded endpoint: pIC50
Give bare numbers, as −log10 of the molar value.

O=[N+]([O-])c1cc(Cl)c(O)c(Cl)c1 [DCNP, 2,6-dichloro-4-nitrophenol] has a reported pIC50 of 4.55
